- Assay type: physicochemical
- applied-conditions: 4320 min
parameter-measured: Solubility (%)
I only need the number, in %, no unit after it.

Worked cases, answers included:
CC(=O)c1ccc(OS(=O)(=O)c2cccc3c2C=CC(=[N+]=[N-])C3=O)cc1OS(=O)(=O)c1cccc2c1C=CC(=[N+]=[N-])C2=O [Compound 1]
1.03
CCOCCOC(=O)c1cc(OS(=O)(=O)c2cccc3c2C=CC(=[N+]=[N-])C3=O)cc(OS(=O)(=O)c2cccc3c2C=CC(=[N+]=[N-])C3=O)c1 [Compound 16]
5.0
CC(C)CCOC(=O)c1ccc(OS(=O)(=O)C2=CC(=[N+]=[N-])C(=O)c3ccccc32)cc1OS(=O)(=O)C1=CC(=[N+]=[N-])C(=O)c2ccccc21 [Compound 11]
2.3
COC(=O)c1ccc(OS(=O)(=O)c2cccc3c2C=CC(=[N+]=[N-])C3=O)cc1OS(=O)(=O)c1cccc2c1C=CC(=[N+]=[N-])C2=O [Compound 10]
0.87
CCCCC(CC)C(=O)c1ccc(OS(=O)(=O)C2=CC(=[N+]=[N-])C(=O)c3ccccc32)cc1OS(=O)(=O)C1=CC(=[N+]=[N-])C(=O)c2ccccc21 (stereo not shown) [Compound 4]
4.3

Req: Solubility (%) lookup needed for CC(C)CCOC(=O)c1ccc(OS(=O)(=O)c2cccc3c2C=CC(=[N+]=[N-])C3=O)c(OS(=O)(=O)c2cccc3c2C=CC(=[N+]=[N-])C3=O)c1 [Compound 13] , thanks.
Resp: 4.7

Req: Ok, now CCCCCCCCCCCCOC(=O)c1cc(OS(=O)(=O)c2cccc3c2C=CC(=[N+]=[N-])C3=O)cc(OS(=O)(=O)c2cccc3c2C=CC(=[N+]=[N-])C3=O)c1 [Compound 18]
Resp: 4.6

Req: Ok, now CC(CC(=O)c1ccc(OS(=O)(=O)C2=CC(=[N+]=[N-])C(=O)c3ccccc32)cc1OS(=O)(=O)C1=CC(=[N+]=[N-])C(=O)c2ccccc21)CC(C)(C)C (stereo not shown) [Compound 6]
Resp: 10.5
